Reported Ki, Sodium-dependent noradrenaline transporter (Homo sapiens, UniProt P23975).
Kindly provide the numeric value in nM only, without the unit symbol.

CC(C)CN(Cc1c(F)cccc1C(F)(F)F)C1CCNCC1    6

Test system Sodium-dependent noradrenaline transporter (Homo sapiens, UniProt P23975); read-out Ki; what value for FC(F)(F)c1ccccc1CN(CC1CC1)C1CCNCC1 ?
6

Let us now turn to CC(C)CN(Cc1ccccc1F)C1CCNCC1
15

Let us now turn to Fc1ccc(CN(CC2CC2)C2CCNCC2)c(C(F)(F)F)c1
6.1

Let us now turn to FC(F)(F)CCN(Cc1ccccc1C(F)(F)F)C1CCNCC1
9.8
